Tested on: XMRV
Experimental Protocol: XMRV replication in LNCaP cells (viral release by RT activity in supernatant)
Assay type: cell-based
Applied Conditions: LNCaP, read-out: EC50 in LNCaP cells
Structures can show the parent of a compound that is named as a salt.
Listed here are compounds together with their documented EC50.
Field format: number, assumed nM, no unit text.

Compound	Assayed System	EC50 (nM)
CC(C)OC(=O)OCOP(=O)(CO[C@H](C)Cn1cnc2c(N)ncnc21)OCOC(=O)OC(C)C [Tenofovir disoproxil fumarate (TDF), Tenofovir disoproxil fumarate]	XMRV	900

Exercise: EC50 lookup needed for Cc1cn([C@H]2C[C@H](N=[N+]=[N-])[C@@H](CO)O2)c(=O)[nH]c1=O [3'-Azido-3'-deoxythymidine (ZDV), 3'-Azido-3'-deoxythymidine] , thanks.
Solution: 140
